# Kd annotations
TARGET OF ASSAY: T1, full-length mouse SNX27 (mouse, UniProt Q3UHD6 1-539)
T1 construct: sorting nexin-27 (SNX27), mouse; also called mSNX27FL
EXPERIMENT: ITC; 800 μM SNX1 or SNX2 peptide titrated into 20 μM mSNX27FL; 25°C; 50 mM HEPES pH 7.5, 200 mM NaCl, 5% glycerol, 1 mM β-ME with 1:10 peptide buffer (100 mM Tris-HCl pH 10.6); single-site model
RECORDED CONDITIONS: both partners purified
Record the value in µM, omitting the unit from your answer.

Consider the worked cases shown below.
[[record]]
binder = "TEVVLDDDREDLFAEATEEVS (human SNX2 residues 62 to 82; also called second aDLF motif of SNX2; source: synthetic peptide (Genscript)) [SNX2_(62-82) peptide]"
endpoint_label = "Kd"
endpoint_result = 22.6

[[record]]
binder = "EAGDSDTEGEDIFTGAA (human SNX1 residues 35 to 51; also called first aDLF motif of human SNX1; source: synthetic peptide (Genscript)) [SNX1_(35-51) peptide]"
endpoint_label = "Kd"
endpoint_result = 33.4


input: Specify Kd for TDFEDLEDGEDLFTSTVS (human SNX2 residues 16 to 33; also called first aDLF motif of SNX2; source: synthetic peptide (Genscript)) [SNX2_(16-33) peptide] and stop.
output: 37.8

input: Give me measured Kd, please, for this binder: NGIHEEQDQEPQDLFADA (human SNX1 residues 75 to 92; also called second aDLF motif of human SNX1; source: synthetic peptide (Genscript)) [SNX1_(75-92) peptide]
output: 13.3

Source of measurements: paper PMC9038204
